tested on: Escherichia coli K-12 BW25113; assay: relative growth (OD600 normalised to plate interquartile mean) (fraction); higher = less growth inhibition, active = 0.2 or less; settings: 50 µM; LB; incubation time: overnight (16-24 h)
Screen size: about 39,000 compounds; about 220 (0.56%) showed activity. What follows is part of a selection rich in actives, with near analogues and random picks from the rest.
Response enum: active, inactive

Solved entries (count: 5):
[[record]]
molecule = "COc1ccc(CN(C)C[C@H]2OCCCC[C@H](C)Oc3ccc(NS(=O)(=O)c4ccc(C)cc4)cc3C(=O)N([C@H](C)CO)C[C@@H]2C)cc1"
discrete_label = "inactive"

[[record]]
molecule = "CC(=O)OCC1=C(C(=O)[O-])N2C(=O)C(NC(=O)Cc3cccs3)C2SC1.[Na+] (stereo not given)"
discrete_label = "active"

[[record]]
molecule = "O=C1CN(N=Cc2ccc([N+](=O)[O-])o2)C(=O)N1"
discrete_label = "active"

[[record]]
molecule = "C=CCC[C@H](Cc1ccc(F)cc1)C(=O)O[C@@H](CNC(=O)[C@@H](CC=C)CC(=O)N(CCO)Cc1ccccc1)c1ccccc1"
discrete_label = "inactive"

[[record]]
molecule = "Cc1cc(C2CCCCC2)n(O)c(=O)c1.NCCO"
discrete_label = "active"


[in] Status in this test for `C[C@@H]1CN([C@@H](C)CO)C(=O)c2cc(NC(=O)C3CCCCC3)ccc2O[C@@H](C)CCCCO[C@H]1CN(C)Cc1ccc(C(=O)O)cc1` ?
[out] inactive

[in] What do we get for `CO[C@H]1C[C@@H]2CC[C@@H](C)[C@@](O)(O2)C(=O)C(=O)N2CCCC[C@H]2C(=O)O[C@H]([C@H](C)C[C@@H]2CC[C@@H](OP(C)(C)=O)[C@H](OC)C2)CC(=O)[C@H](C)/C=C(\C)[C@@H](O)[C@@H](OC)C(=O)[C@H](C)C[C@H](C)/C=C/C=C\C=C\1C` ?
[out] inactive

[in] What do we get for `CCNC(=O)C[C@@H]1CC[C@H]2[C@H](COc3ccc(NS(=O)(=O)c4ccccc4C)cc3C(=O)N2C)O1` ?
[out] inactive

[in] What do we get for `CC(=O)N(C)C[C@@H]1Oc2ncc(C#C[C@@H](C)O)cc2C(=O)N([C@@H](C)CO)C[C@H]1C` ?
[out] inactive

====

tested on: Escherichia coli K-12 BW25113; assay: relative growth (OD600 normalised to plate interquartile mean) (fraction); higher = less growth inhibition, active = 0.2 or less; settings: 50 µM; LB; incubation time: overnight (16-24 h)
Out of some 39,000 compounds screened, about 220 (0.56%) showed activity. What follows is part of a selection rich in actives, with near analogues and random picks from the rest.
Recorded endpoint: relative growth

[in] Record lookup: for Escherichia coli K-12 BW25113, what relative growth belongs to Nc1ncn(C2OC(CO)C(O)C2O)c(=O)n1 (centres undefined) ?
[out] 0.05 (active)

====

system: Escherichia coli K-12 BW25113; experiment: relative growth (OD600 normalised to plate interquartile mean) (fraction); higher = less growth inhibition, active = 0.2 or less; conditions: 50 µM; LB; incubation time: overnight (16-24 h);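 also: Wild-type cells incubated without shaking, value is the mean of two biological replicates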
About 220 (0.56%) of roughly 39,000 compounds showed activity. Shown is part of a subset that was picked to be rich in actives.
Recorded endpoint: relative growth
When you answer, write just the number.

Some entries whose results are on file:
[[record]]
smiles_code = "Cc1ccc(S(=O)(=O)N(C)C[C@H]2Oc3c(NC(=O)c4ccncc4)cccc3C(=O)N([C@@H](C)CO)C[C@H]2C)cc1"
assay_result = 1.01

[[record]]
smiles_code = "C[C@@H]1CN([C@H](C)CO)C(=O)c2cc(NC(=O)c3ccncc3)ccc2O[C@@H](C)CCCCO[C@H]1CN(C)Cc1ccc(C(F)(F)F)cc1"
assay_result = 1


[in] Can you look up the measured relative growth of `O=c1c(O[C@@H]2O[C@H](CO)[C@@H](O)[C@H](O)[C@H]2O)c(-c2ccc(O)c(O)c2)oc2cc(O)cc(O)c12` for me?
[out] 1.04

[in] What do we get for `COCC#Cc1cnc2c(c1)C(=O)N([C@H](C)CO)C[C@H](C)[C@@H](CN(C)S(=O)(=O)c1ccccc1)O2` ?
[out] 1
